System: OVCAR-8 ovarian
assay.comment: NCI-60 one-dose screen, 48 h (100 = growth as untreated, 0 = no growth, -100 = all killed)
condition.context: 10 µM unless noted
About 83,000 compounds went through this panel and 20% of them were active in at least one assay; those are over-represented in the sample as a whole.
Could you please report measured growth for the items listed next?
One number for each entry, in %.

Here are 4 compounds together with their reported answers.
[
  {
    "compound": "COc1ccc(-c2cn[nH]c2-c2cc(OC)c3c(c2)OCO3)cc1",
    "unit.annotation": "%",
    "growth": 11.7
  },
  {
    "compound": "CCN(C(=O)c1cc2ncccc2[nH]1)[C@H]1CCC[C@@H](NCc2cccc(F)c2)C1",
    "unit.annotation": "%",
    "growth": 103
  },
  {
    "compound": "CC(=O)Oc1cccc(OC(C)=O)c1OC(C)=O",
    "unit.annotation": "%",
    "growth": 106
  },
  {
    "compound": "CC(=O)C1CCC(C)=CC1=O (stereo not given)",
    "unit.annotation": "%",
    "growth": 100
  }
]

Please examine the following record next.
Sure, the documented growth for CC/C(=C(\c1ccc(O)cc1)c1ccc(OCCN(C)CCN(C)C(=O)CCC(=O)c2c(C)[nH]c(/C=C3\N=C(c4ccc[nH]4)C=C3OC)c2C)cc1)c1ccccc1 is 89.9
